Where these numbers come from: patent US20250011363A1

molecular target: acetylcholine receptor; assay: SPR, AchR immobilized on CM5 chip, peptide at 10 µM
Metric name: Binding affinity (RU)

> print(dat)
              binder            metric.name  assay.result
 1  RVRLR [5mer-437]  Binding affinity (RU)            50
 2  RGFYR [5mer-425]  Binding affinity (RU)            80
 3  RQVTR [5mer-121]  Binding affinity (RU)            73
 4  RVYLK [5mer-424]  Binding affinity (RU)            87
 5  KGVSK [5mer-137]  Binding affinity (RU)            77
 6  KVIRK [5mer-100]  Binding affinity (RU)            80
 7  RLQYK [5mer-139]  Binding affinity (RU)            73
 8  RVVLK [5mer-104]  Binding affinity (RU)            74
 9  RWRSK [5mer-116]  Binding affinity (RU)            64
10  KVRCK [5mer-414]  Binding affinity (RU)            71
11  RQIYK [5mer-407]  Binding affinity (RU)            58
12  RGRSR [5mer-412]  Binding affinity (RU)            81
13  RQILK [5mer-120]  Binding affinity (RU)            68
14  RWVTK [5mer-127]  Binding affinity (RU)            86
15  KQIYK [5mer-409]  Binding affinity (RU)            62
16  RQYSR [5mer-142]  Binding affinity (RU)            52
17  KWIRR [5mer-123]  Binding affinity (RU)            53
18  KGQQR [5mer-143]  Binding affinity (RU)            64
19  KRLRK [5mer-113]  Binding affinity (RU)            79
20  RQFSK [5mer-134]  Binding affinity (RU)            61
21  RGVLR [5mer-401]  Binding affinity (RU)            52
22  RSFSK [5mer-145]  Binding affinity (RU)            62
23  RVFYK [5mer-436]  Binding affinity (RU)            60
24  KSQYK [5mer-429]  Binding affinity (RU)            63
25  KWIQR [5mer-399]  Binding affinity (RU)            62
